System: HLA-A1
assay notes: REVEAL binding assay
experimental conditions: score as percentage of the signal generated by the positive control peptide
Where no end group is shown, it is not given here. [ ]: non-standard residue; d: D form. Nle = CCCC[C@H](N)C(=O)O
readout label: REVEAL binding score, HLA-type A1 (%)
Numbers only; they are read as %.

INSERT INTO assay_data (substance, readout_label, unit_label, value) VALUES
  ('QIIGGNYLI', 'REVEAL binding score, HLA-type A1', '%', 21.63),
  ('LGRVIETLT', 'REVEAL binding score, HLA-type A1', '%', 16.33),
  ('EL[Nle]GYIPLI', 'REVEAL binding score, HLA-type A1', '%', 18.29);

Report REVEAL binding score, HLA-type A1 for YVTGNIPGS please.
13.33

Please report the recorded REVEAL binding score, HLA-type A1 for [Nle]GYIPLIGA .
17.87

Name the reported REVEAL binding score, HLA-type A1 value associated with the substance GYIPLVGAP
15.62
